# TEST PROTOCOL: Solubility measurement in solvents
# Type: physicochemical
# STUDY CONDITIONS: hexane, organic solvent or mixture, thermodynamic from solid, hexane, non-polar solvent; read-out: Solubility in hexane
QUANTITY KIND: solubility

COc1cccc(CNc2ccc(S(=O)(=O)Nc3nc4ccccc4s3)cc2)c1O: < 0.15 µg/mL

* * *

# TEST PROTOCOL: Solubility measurement in solvents
# Assay type: physicochemical
# STUDY CONDITIONS: EtOH, organic solvent or mixture, thermodynamic from solid, EtOH, 2 h, room temperature; read-out: Solubility at 2 h
QUANTITY KIND: solubility at 2 h (µg/mL)

COc1cccc(CNc2ccc(S(=O)(=O)Nc3nc4ccccc4s3)cc2)c1O: 270

* * *

# TEST PROTOCOL: Solubility measurement in solubilizers (aqueous phosphate buffer at pH 7.4)
# Type: physicochemical
# STUDY CONDITIONS: 10% Tween 80 in phosphate buffer, pH 7.4, aqueous with cosolvent or surfactant or cyclodextrin, thermodynamic from solid, 10% Tween 80, phosphate buffer pH 7.4, 0.5 h
QUANTITY KIND: solubility at 0.5 h (µg/mL)

COc1cccc(CNc2ccc(S(=O)(=O)Nc3nc4ccccc4s3)cc2)c1O: 76

* * *

# TEST PROTOCOL: Solubility measurement in solubilizers (aqueous phosphate buffer at pH 7.4)
# Type: physicochemical
# STUDY CONDITIONS: 40% HP-β-CD in aqueous phosphate buffer pH 7.4, pH 7.4, aqueous with cosolvent or surfactant or cyclodextrin, thermodynamic from solid, 40% HP-β-CD, phosphate buffer pH 7.4, 0.5 h
QUANTITY KIND: solubility at 0.5 h

COc1cccc(CNc2ccc(S(=O)(=O)Nc3nc4ccccc4s3)cc2)c1O: 450 µg/mL

* * *

# TEST PROTOCOL: Solubility measurement in solvents
# Format: physicochemical
# STUDY CONDITIONS: Glycerin, organic solvent or mixture, thermodynamic from solid, Glycerin, 2 h, room temperature; read-out: Solubility at 2 h
QUANTITY KIND: solubility at 2 h (µg/mL)

COc1cccc(CNc2ccc(S(=O)(=O)Nc3nc4ccccc4s3)cc2)c1O [Compound 1]: 25

* * *

# TEST PROTOCOL: Solubility measurement in solubilizers (aqueous phosphate buffer at pH 7.4)
# Assay type: physicochemical
# STUDY CONDITIONS: 40% HP-β-CD in phosphate buffer, pH 7.4, aqueous with cosolvent or surfactant or cyclodextrin, thermodynamic from solid, 40% HP-β-CD, phosphate buffer pH 7.4, 2 h; read-out: Solubility at 2 h
QUANTITY KIND: solubility at 2 h (µg/mL)

COc1cccc(CNc2ccc(S(=O)(=O)Nc3nc4ccccc4s3)cc2)c1O [Compound 1]: 570

* * *

# TEST PROTOCOL: Solubility measurement in buffers over a pH range
# Type: physicochemical
# STUDY CONDITIONS: pH 10 buffer, pH 10, aqueous buffer, thermodynamic from solid, pH 10; read-out: Solubility in pH 10 buffer
QUANTITY KIND: solubility

COc1cccc(CNc2ccc(S(=O)(=O)Nc3nc4ccccc4s3)cc2)c1O [Compound 1]: 0.4 to 0.6 µg/mL

* * *

# TEST PROTOCOL: Solubility measurement in solubilizers (aqueous phosphate buffer at pH 7.4)
# Assay type: physicochemical
# STUDY CONDITIONS: 20% HP-β-CD in phosphate buffer, pH 7.4, aqueous with cosolvent or surfactant or cyclodextrin, thermodynamic from solid, 20% HP-β-CD, phosphate buffer pH 7.4, 2 h; read-out: Solubility at 2 h
QUANTITY KIND: solubility at 2 h

COc1cccc(CNc2ccc(S(=O)(=O)Nc3nc4ccccc4s3)cc2)c1O: 190 µg/mL
